Tested on: HL60 cells
Experiment: HL60 cell proliferation assay (CellTiter-Glo)
Assay type: cell-based
Conditions: Homo sapiens, HL-60, HL60 cell viability, 72 hours, read-out: Cell Line (IC50, nM) HL60
Criterion: IC50 strictly less than 4000 nM. Met: True. Not met: False.

[ask] Item `COc1cccc(F)c1-c1c(C)c2cnc(NC(=O)[C@@H]3C[C@@H]3F)cc2n1C` : IC50 beneath 4000 nM, strictly?
[reply] True

[ask] API: query returns whether the molecule falls strictly under 4000 nM in IC50. Query: `COc1ccnc(OC)c1-c1cc2cc(NC(=O)[C@@H]3C[C@@H]3F)ncc2n1C`
[reply] True

[ask] Is IC50 strictly under 4000 nM for the entry `CCc1ncnc(OC)c1-c1cc2cc(NC(=O)[C@@H]3C[C@@H]3F)ncc2n1C` ?
[reply] False

[ask] I wonder whether `COc1nc(C)nc(OC)c1-c1cc2cc(NC(=O)[C@@H]3C[C@@H]3F)ncc2n1C` has IC50 below 4000 nM. Can you tell?
[reply] True

[ask] Dear colleague, could you confirm whether IC50 of `COc1ccccc1-c1c(C)c2cnc(NC(=O)[C@H]3C[C@H]3F)cc2n1C` falls below 4000 nM? Thanks.
[reply] False

[ask] Is the reported IC50 for `COc1ncnc(OC)c1-c1cc2cc(NC(=O)[C@@H]3C[C@@H]3F)ncc2n1C` strictly below 4000 nM?
[reply] True

[ask] Take the molecule COc1ncc(F)c(OC)c1-c1cc2cc(NC(=O)[C@@H]3C[C@H]3CN3CCN(C)CC3)ncc2n1C (single isomer, unassigned) and say whether its IC50 is less than 4000 nM.
[reply] False

[ask] I'd appreciate it if you could check whether `COc1ncccc1-c1c(C)c2cc(NC(=O)[C@@H]3C[C@@H]3F)ncc2n1C` has IC50 smaller than 4000 nM.
[reply] False

[ask] Problem: For the molecule `COc1cc2[nH]ncc2cc1-c1cc2cc(NC(=O)[C@@H]3C[C@@H]3F)ncc2n1C` , is IC50 under 4000 nM?
[reply] True

[ask] Is IC50 of `COc1ccnc(C)c1-c1cc2cc(NC(=O)[C@@H]3C[C@@H]3F)ncc2n1C` strictly below 4000 nM?
[reply] False

[ask] Strictly below 4000 nM in IC50? `CCOc1ncc(F)cc1-c1cc2cc(NC(=O)[C@@H]3C[C@@H]3F)ncc2n1C`
[reply] False

[ask] Is the reported IC50 for `Cc1ccc(F)cc1-c1cc2cc(NC(=O)C3CC3)ncc2n1C` strictly below 4000 nM?
[reply] False

[ask] Below 4000 nM on IC50? Entry `Cn1c(-c2ccncc2OC2CC2)cc2cc(NC(=O)[C@@H]3C[C@@H]3F)ncc21`
[reply] False

[ask] I wonder whether `COc1ncnc(OC2CC2)c1-c1cc2cc(NC(=O)[C@@H]3C[C@@H]3F)ncc2n1C` has IC50 below 4000 nM. Can you tell?
[reply] True

[ask] Just wondering, is IC50 of `COc1ncnc(OC)c1-c1cc2cc(NC(=O)[C@H]3CC3(F)F)ncc2n1C` below 4000 nM?
[reply] True

[ask] Is it true that IC50 reported for COc1ncnc(OC)c1-c1cc2cc(NC(=O)[C@H]3C[C@@H]3CN3CCN(C)CC3)ncc2n1C (single isomer, unassigned) is less than 4000 nM?
[reply] False

---

Target: ABL1 (Homo sapiens, UniProt P00519)
Construct: purchased Carna Biosciences
Sequence (P00519 whole entry): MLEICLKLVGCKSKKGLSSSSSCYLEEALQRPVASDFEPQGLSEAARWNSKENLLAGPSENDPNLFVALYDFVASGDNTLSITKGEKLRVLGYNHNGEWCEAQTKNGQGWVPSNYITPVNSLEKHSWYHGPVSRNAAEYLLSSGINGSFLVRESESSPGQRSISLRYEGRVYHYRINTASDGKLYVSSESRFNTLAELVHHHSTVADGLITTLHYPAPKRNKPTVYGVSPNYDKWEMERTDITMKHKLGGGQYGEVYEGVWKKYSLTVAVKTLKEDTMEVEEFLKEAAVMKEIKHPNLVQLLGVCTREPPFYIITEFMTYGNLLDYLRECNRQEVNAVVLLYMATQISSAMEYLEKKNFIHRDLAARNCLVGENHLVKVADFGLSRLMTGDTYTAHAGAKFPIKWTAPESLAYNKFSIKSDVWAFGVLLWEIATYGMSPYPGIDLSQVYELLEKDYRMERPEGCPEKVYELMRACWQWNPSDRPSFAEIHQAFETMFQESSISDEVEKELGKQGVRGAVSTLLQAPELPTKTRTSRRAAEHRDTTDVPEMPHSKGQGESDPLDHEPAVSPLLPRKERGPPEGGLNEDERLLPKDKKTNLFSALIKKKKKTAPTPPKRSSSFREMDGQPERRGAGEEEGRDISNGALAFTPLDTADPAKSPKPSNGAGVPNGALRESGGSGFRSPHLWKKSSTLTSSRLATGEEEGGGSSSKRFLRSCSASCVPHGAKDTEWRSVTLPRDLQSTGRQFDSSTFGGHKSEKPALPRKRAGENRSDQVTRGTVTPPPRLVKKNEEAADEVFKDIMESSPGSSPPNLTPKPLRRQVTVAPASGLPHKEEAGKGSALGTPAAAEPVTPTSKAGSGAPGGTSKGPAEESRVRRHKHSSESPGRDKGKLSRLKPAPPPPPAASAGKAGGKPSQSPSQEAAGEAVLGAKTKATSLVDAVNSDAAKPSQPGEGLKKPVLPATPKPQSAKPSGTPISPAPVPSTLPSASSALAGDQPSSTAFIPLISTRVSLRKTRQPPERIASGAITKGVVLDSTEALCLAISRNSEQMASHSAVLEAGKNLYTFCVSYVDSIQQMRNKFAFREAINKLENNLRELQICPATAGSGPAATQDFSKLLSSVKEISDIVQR
Experiment: Luminescence-based ABL kinase assay (300 μM ATP), ADP-Glo
Assay type: biochemical
Source text: Compounds were serially diluted in DMSO. […] Luminescence signal positively correlates with kinase activity.
Structures can show the parent of a compound that is named as a salt.
Kindly supply the reported IC50 values for the records listed here.
Enter your answer as a number in nM; do not include the unit.

For record COc1ccnc(OC)c1-c1cc2cc(NC(=O)[C@H]3C[C@@H]3CN3C4CCC3CNC4)ncc2n1C (relative stereo) the listed IC50 is 24.4

Short answer for COc1ccccc1-c1cc2cc(NC(=O)[C@H]3C[C@H]3CN3CCN(C)CC3)ncc2n1C (relative stereo) : IC50 was 113

Query `Cc1c(O)cccc1-c1cc2cc(NC(=O)C3CC3)ncc2n1C` yields IC50 of 9.22

# IC50 (compound: `COc1nc(N)nc(OC)c1-c1cc2cc(NC(=O)[C@@H]3C[C@@H]3F)ncc2n1C` ) is 3.98

Lab note: measured IC50 of COc1ccnc(OC)c1-c1cc2cc(NC(=O)[C@H]3C[C@@H]3CN3CCNCC3)ncc2n1C (single isomer, unassigned) was 12.8

Sure, the documented IC50 for `COc1ncc(C#N)cc1-c1cc2cc(NC(=O)[C@@H]3C[C@@H]3F)ncc2n1C` is 126

The compound listed as COc1ccccc1-c1cc2cc(NC(=O)[C@H]3C[C@H]3CO)ncc2n1C (relative stereo) shows IC50 equal to 119

Reported IC50 of `COc1cccc(C)c1-c1cc2cc(NC(=O)C3CC3)ncc2n1C` : 13.8

Measured IC50, COc1ccnc(OC)c1-c1cc2cc(NC(=O)[C@H]3C[C@@H]3CN(C)C)ncc2n1C (single isomer, unassigned) : 59.4

GET /value?item= `COc1ncc(F)cc1-c1c(C)c2cc(NC(=O)[C@@H]3C[C@@H]3F)ncc2n1C` &field=IC50 returns 191

The compound listed as `CCN1CCN(CCNC(=O)Nc2cc3cc(-c4c(OC)ncc(F)c4OC)n(C)c3cn2)CC1` shows IC50 equal to 44.5

GET /value?item= COc1cc2[nH]cnc2cc1-c1cc2cc(NC(=O)[C@@H]3C[C@@H]3F)ncc2n1C [Compound 28, formate] &field=IC50 returns 9.95

Record `COc1ncccc1-c1cc2cc(NC(=O)[C@H]3C[C@H]3F)ncc2n1C` . Reported IC50: 40.8

Measured IC50, `COc1ccnc(C)c1-c1cc2cc(NC(=O)[C@@H]3C[C@@H]3F)ncc2n1C` : 200

get_value(item= `COc1ncncc1-c1cc2cc(NC(=O)[C@@H]3C[C@@H]3F)ncc2n1C` , readout=IC50) returns 109

Short answer for `COc1ccccc1-c1c(C)c2cnc(NC(=O)[C@@H]3C[C@@H]3F)cc2n1C` : IC50 was 51.3

Sample `COc1ncc(F)c(OC)c1-c1cc2cc(NC(=O)[C@@H]3C[C@@H]3F)ncc2n1C` ; IC50 observed: 11.3

get_value(item= `COc1ncnc(OC)c1-c1cc2cc(NC(=O)[C@H]3C[C@H]3F)ncc2n1C` , readout=IC50) returns 57.4

Sample `COc1ncnc(O)c1-c1cc2cc(NC(=O)[C@@H]3C[C@@H]3F)ncc2n1C` ; IC50 observed: 1690

Kindly note the recorded IC50 for COc1ncc(F)c(OC)c1-c1cc2cc(NC(=O)[C@@H]3C[C@H]3CN(C)C)ncc2n1C (single isomer, unassigned) , which is 37.3

Form: compound = `Cn1c(-c2ccncc2OC2CC2)cc2cc(NC(=O)[C@@H]3C[C@@H]3F)ncc21` ; IC50 = 43.3

The compound `COc1ccccc1-c1c(C)c2cc(NC(=O)[C@@H]3C[C@@H]3F)ncc2n1C` showed IC50 equal to 50.2

Record summary for `CCNC(=O)Nc1cc2cc(-c3ccccc3OC)n(C)c2cn1` : reported IC50 = 95.9

Value of measured IC50 for the entry `COc1c(-c2cc3cc(NC(=O)[C@@H]4C[C@@H]4F)ncc3n2C)ccc2[nH]cnc12` : 52

Short answer for `COc1ncccc1-c1c(C)c2cc(NC(=O)[C@@H]3C[C@@H]3F)ncc2n1C` : IC50 was 207

# IC50 (compound: `COc1nc(C2CC2)nc(OC)c1-c1cc2cc(NC(=O)[C@@H]3C[C@@H]3F)ncc2n1C` ) is 49.2

IC50 for `COc1ncnc(OC)c1-c1cc2cc(NC(=O)[C@@H]3C[C@@H]3F)ncc2[nH]1` is 111

get_value(item= `Cc1c(-c2cc3cc(NC(=O)C4CC4)ncc3n2C)ccc2[nH]ncc12` , readout=IC50) returns 743

# compound COc1ncnc(OC)c1-c1cc2cc(NC(=O)[C@H]3C[C@@H]3CN3CCN(C)CC3)ncc2n1C (single isomer, unassigned) ; its IC50 = 14.9

Summary for this compound, `Cc1c(-c2cc3cc(NC(=O)C4CC4)ncc3n2C)ccc2[nH]cnc12` : IC50 is 263

# IC50 of `Cc1c(O)cccc1-c1cc2cc(NC(=O)[C@@H]3C[C@@H]3F)ncc2n1C` = 9.33

---

Target: ABL1 (Homo sapiens, UniProt P00519)
Construct: purchased Carna Biosciences
Test: Luminescence-based ABL kinase assay (300 μM ATP), ADP-Glo
Type: biochemical
Lab note: class by IC50, see band A: < 30 nM; band B: ≥ 30 nM and < 80 nM; band C: ≥ 80 nM

[ask] // return the class label for `COc1ncnc(C)c1-c1cc2cc(NC(=O)[C@@H]3C[C@@H]3F)ncc2n1C`
[reply] band C

[ask] Field: class (IC50) — entry: `COc1cccc(OC)c1-c1cc2cc(NC(=O)[C@@H]3C[C@@H]3F)ncc2n1C`
[reply] band A

[ask] Which class does `COc1ccccc1-c1[nH]c2cc(NC(=O)[C@@H]3C[C@@H]3F)ncc2c1C` fall in?
[reply] band B

[ask] Looking at `COc1ncc(F)cc1-c1c(C)c2cnc(NC(=O)[C@@H]3C[C@@H]3F)cc2n1C` , which class would you pick?
[reply] band C

[ask] The entry to classify is `Cn1c(-c2cc(F)cnc2OC2CC2)cc2cc(NC(=O)[C@@H]3C[C@@H]3F)ncc21` ; which class holds it?
[reply] band C

[ask] Please let me know in which category the item `Cn1c(-c2cnccc2OC2CC2)cc2cc(NC(=O)[C@@H]3C[C@@H]3F)ncc21` belongs.
[reply] band B

[ask] Could you tell me which band COc1ccnc(OC)c1-c1cc2cc(NC(=O)[C@@H]3C[C@H]3CN3CC4CC(C3)N4)ncc2n1C (single isomer, unassigned) [Example 135, Enantiomer 2] belongs to?
[reply] band A

[ask] Lab note: sort `COc1ccccc1-c1c(C)c2cnc(NC(=O)[C@H]3C[C@H]3F)cc2n1C` into the matching IC50 band.
[reply] band C

[ask] Record `COc1ccnc(OC)c1-c1cc2cc(NC(=O)[C@H]3C[C@H]3F)ncc2n1C` — which class?
[reply] band B

[ask] Hi, small favor: classify `CCc1ccnc(OC)c1-c1cc2cc(NC(=O)[C@@H]3C[C@@H]3F)ncc2n1C` by its IC50 when you get a moment.
[reply] band A

[ask] Could you place `COc1ncnc(OC)c1-c1[nH]c2cc(NC(=O)[C@@H]3C[C@@H]3F)ncc2c1C` in its proper category? Many thanks.
[reply] band C
